target: Casein kinase I isoform delta (Homo sapiens); experiment: Inhibition of CSNK1D (unknown origin) using CSNK1D/Ser/Thr 11 peptide incubated for 1 hr by FRET based Z'-LYTE assay
Sequence (P48730 whole entry, canonical isoform): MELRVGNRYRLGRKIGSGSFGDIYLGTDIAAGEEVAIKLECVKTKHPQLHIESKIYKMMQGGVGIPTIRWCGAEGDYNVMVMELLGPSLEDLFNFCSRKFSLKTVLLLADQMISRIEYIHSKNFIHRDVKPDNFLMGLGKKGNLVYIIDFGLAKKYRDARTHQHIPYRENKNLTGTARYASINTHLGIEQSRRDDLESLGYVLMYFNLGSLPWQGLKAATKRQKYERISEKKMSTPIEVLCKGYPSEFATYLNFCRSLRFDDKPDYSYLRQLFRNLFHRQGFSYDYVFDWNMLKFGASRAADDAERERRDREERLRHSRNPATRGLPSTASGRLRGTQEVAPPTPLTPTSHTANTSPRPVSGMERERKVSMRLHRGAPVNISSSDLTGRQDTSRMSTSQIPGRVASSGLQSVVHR
Kindly state IC50 for each of the entries shown.
The response must be a number in nM with no trailing unit.

[ask] Endpoint output: IC50 of CNC(=O)c1ccc2[nH]nc(-c3cccc(C(=O)NCc4cccc5ccccc45)c3)c2c1 . Value?
[reply] 354

[ask] Now consider C[C@@H](NC(=O)c1ccc2[nH]nc(-c3cccc(NS(C)(=O)=O)c3)c2c1)c1ccccc1 and answer again.
[reply] 1030

[ask] Now consider Fc1ccc(-c2n[nH]c3ccc(-c4n[nH]c(CN5CCCC5)n4)cc23)cc1 and answer again.
[reply] 848

[ask] Now consider CN(C)Cc1n[nH]c(-c2ccc3[nH]nc(-c4cccc(C(=O)Nc5ccc(F)cc5)c4)c3c2)n1 and answer again.
[reply] 134
